Hey, just so you know, these numbers are from ChEMBL document CHEMBL1212786.

- procedure details: Tmax in monkey at 7. 5 mg/kg, po by LC/MS/MS analysis
- Assay type: ADME, organism-based, Macaca mulatta
- Parameters: dose 5 mg/kg, route oral
- condition: rhesus monkey, in vivo
outcome measure: Tmax
Answer with the value and then the unit.

Find the measured Tmax of C/C=C/C[C@@H](C)[C@@H](O)[C@H]1C(=O)N[C@@H](CC)C(=O)N(C)C(SCCN(C)C)C(=O)N(C)[C@@H](CC(C)(C)O)C(=O)N[C@@H](C(C)C)C(=O)N(C)[C@@H](CC(C)C)C(=O)N[C@@H](C)C(=O)N[C@H](C)C(=O)N(C)[C@@H](CC(C)C)C(=O)N(C)[C@@H](CC(C)C)C(=O)N(C)[C@@H](C(C)C)C(=O)N1C (single isomer, unassigned) and report it.
2.7 h

* * *

- procedure details: AUC (0 to infinity) in monkey at 1 mg/kg, iv after 24 hrs by LC/MS/MS analysis
- Assay type: ADME, organism-based, Macaca mulatta
- Parameters: time infinity, dose 1 mg/kg, route intravenous
- condition: rhesus monkey, plasma
outcome measure: AUC(0-inf) (ng·h/mL)
The answer is to be given in ng·h/mL; state only the numeric part.

Report AUC(0-inf) for C/C=C/C[C@@H](C)[C@@H](O)[C@H]1C(=O)N[C@@H](CC)C(=O)N(C)C(SCCN(C)C)C(=O)N(C)[C@@H](CC(C)(C)O)C(=O)N[C@@H](C(C)C)C(=O)N(C)[C@@H](CC(C)C)C(=O)N[C@@H](C)C(=O)N[C@H](C)C(=O)N(C)[C@@H](CC(C)C)C(=O)N(C)[C@@H](CC(C)C)C(=O)N(C)[C@@H](C(C)C)C(=O)N1C (single isomer, unassigned) [SCY 635]
31500

* * *

- procedure details: AUC (2 to 24 hrs) in Sprague-Dawley rat liver at 10 mg/kg, po by LC/MS/MS analysis
- Format: ADME, organism-based
- Set-up: time 2-24 hr, dose 10 mg/kg, route oral
outcome measure: AUC(0-t) (µg·h/mL)
Please give a number only; it is taken to be in µg·h/mL.

Determine from records and report AUC(0-t) for C/C=C/C[C@@H](C)[C@@H](O)[C@H]1C(=O)N[C@@H](CC)C(=O)N(C)C(SCCN(C)C)C(=O)N(C)[C@@H](CC(C)(C)O)C(=O)N[C@@H](C(C)C)C(=O)N(C)[C@@H](CC(C)C)C(=O)N[C@@H](C)C(=O)N[C@H](C)C(=O)N(C)[C@@H](CC(C)C)C(=O)N(C)[C@@H](CC(C)C)C(=O)N(C)[C@@H](C(C)C)C(=O)N1C (single isomer, unassigned)
120

* * *

- procedure details: AUC (0 to infinity) in Sprague-Dawley rat at 2 mg/kg, iv after 24 hrs by LC/MS/MS analysis
- Format: ADME, organism-based
- Set-up: time infinity, dose 2 mg/kg, route intravenous
- condition: plasma
outcome measure: AUC(0-inf) (ng·h/mL)
I only need the number, in ng·h/mL, no unit after it.

Supply measured AUC(0-inf) of C/C=C/C[C@@H](C)[C@@H](O)[C@H]1C(=O)N[C@@H](CC)C(=O)N(C)C(SCCN(C)C)C(=O)N(C)[C@@H](CC(C)(C)O)C(=O)N[C@@H](C(C)C)C(=O)N(C)[C@@H](CC(C)C)C(=O)N[C@@H](C)C(=O)N[C@H](C)C(=O)N(C)[C@@H](CC(C)C)C(=O)N(C)[C@@H](CC(C)C)C(=O)N(C)[C@@H](C(C)C)C(=O)N1C (single isomer, unassigned) in your reply.
22500
